target: Human immunodeficiency virus type 1 reverse transcriptase (Human immunodeficiency virus 1, UniProt Q72547)
pIC50: −log10 of the molar value.
Items are presented alongside their recorded pIC50.
measurement type: pIC50

[[record]]
compound = "CCC(C)Sc1nc(O)c(C)c(Cc2ccccc2F)n1 (configuration not stated)"
observed_measurement = 6.39

[[record]]
compound = "CCC(C)Sc1nc(O)c(C)c(Cc2ccc(F)cc2)n1 (configuration not stated)"
observed_measurement = 4.89

[[record]]
compound = "CSc1nc(O)c(C)c(Cc2c(F)cccc2F)n1"
observed_measurement = 6.70

[[record]]
compound = "CC(C)Sc1nc(Cc2c(F)cccc2F)cc(=O)[nH]1"
observed_measurement = 7.30

[[record]]
compound = "Cc1c(O)nc(SC(C)C)nc1Cc1c(Cl)cccc1Cl"
observed_measurement = 5.94

[[record]]
compound = "CCCCSc1nc(O)cc(Cc2c(F)cccc2F)n1"
observed_measurement = 6.70

[[record]]
compound = "CCC(C)Sc1nc(O)cc(Cc2ccccc2)n1 (configuration not stated)"
observed_measurement = 6.00

